# target_desc: Human ALDH3A1 (Homo sapiens)
# Sequence (P30838 whole entry): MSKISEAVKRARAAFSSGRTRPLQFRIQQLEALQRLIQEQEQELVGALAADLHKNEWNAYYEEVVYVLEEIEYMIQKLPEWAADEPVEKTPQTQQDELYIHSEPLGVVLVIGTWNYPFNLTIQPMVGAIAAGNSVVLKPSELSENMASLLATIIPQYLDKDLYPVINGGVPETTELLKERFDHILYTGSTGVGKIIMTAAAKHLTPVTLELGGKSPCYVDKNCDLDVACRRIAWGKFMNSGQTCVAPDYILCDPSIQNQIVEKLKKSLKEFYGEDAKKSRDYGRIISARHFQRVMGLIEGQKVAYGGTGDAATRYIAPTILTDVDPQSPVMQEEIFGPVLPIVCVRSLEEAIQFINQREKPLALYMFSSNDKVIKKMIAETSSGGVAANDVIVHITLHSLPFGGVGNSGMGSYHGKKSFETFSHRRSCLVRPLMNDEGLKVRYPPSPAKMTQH
# experimental_protocol: ALDH3A1 biochemical assay (benzaldehyde/NADP+, diaphorase-resazurin readout, 1,536-well)
measured_quantity: AC50 (nM)
One number for each entry, in nM.

Look over these answered cases.
compound	target_desc	AC50 (nM)
O=C(NCc1ccc(S(F)(F)(F)(F)F)cc1)c1csc(N2CCN(c3cccc(C(F)(F)F)c3)CC2)n1	Human ALDH3A1 (Homo sapiens)	28.2
Cc1nn(-c2ccc(C(C)C)cc2)c(C)c1[C@@H]1C=C[C@@H](NCc2cccc(C#N)c2)C1	Human ALDH3A1 (Homo sapiens)	10000
O=C(NCc1cccc([S+](=O)([O-])C(F)(F)F)c1)c1csc(N2CCN(c3cccc(C(F)(F)F)c3)CC2)n1	Human ALDH3A1 (Homo sapiens)	447
Cc1cccc(CNC(=O)c2csc(N3CCN(c4ccc(F)cc4)CC3)n2)c1	Human ALDH3A1 (Homo sapiens)	1150
Cc1cccc(CNC(=O)c2csc(N3CCN(c4ccccc4Br)CC3)n2)c1	Human ALDH3A1 (Homo sapiens)	410
O=C(Nc1ccc(F)cc1)c1ccc(CNC(=O)c2csc(N3CCN(c4cccc(C(F)(F)F)c4)CC3)n2)cc1	Human ALDH3A1 (Homo sapiens)	89.2

Could you now consider this next compound?
Ask | Supply measured AC50 of C[S+](=O)([O-])c1ccc(N2CCN(CC3(O)CNCCOC3)CC2)c(F)c1 (stereo not shown) in your reply.
Reply | 20000
